Listing: Mean maximum fluorescence intensity (Top MFI) of selected binders
Target: T1, human Claudin 18.2 (hCLDN18.2) (human, UniProt P56856-2 1-261)
T1 construct: whole, on cells; also called CLDN18A2; claudin 18 splice variant 2
Assay: FACS, HEK293-hCLDN18.2 cells
Reply numerically in MFI, unit not repeated.

Before answering, review these 3 worked examples.
hu299B2-S32A-1 (antibody, V domains shown, also called humanized antibody hu299B2-S32A) VH: QVQLVQSGAEVKKPGASVKVSCKASGYIFTNYWIHWVRQAPGQGLEWMGRIYPGTGNTYYNEKFTGRVTMTRDTSTSTVYMELSSLRSEDTAVYYCAREGYGKGNSMDYWGQGTTVTVSS VL: DIVMTQSPDSLAVSLGERATINCKSSQSLLNAGNQKNYLTWYQQKPGQPPKLLIYWASTRESGVPDRFSGSGSGTDFTLTISSLQAEDVAVYYCQNAYYYPYTFGGGTKLEIK    29500
hu299B2-S32A-4 (antibody, V domains shown, also called humanized antibody hu299B2-S32A) VH: QVQLVQSGAEVKKPGASVKVSCKTSGYIFTNYWIHWVRQAPGQGLEWMGRIYPGTGNTYYNEKFTGRVTLTADTSTSTVYMELSSLRSEDTAVYYCSREGYGKGNSMDYWGQGTTVTVSS VL: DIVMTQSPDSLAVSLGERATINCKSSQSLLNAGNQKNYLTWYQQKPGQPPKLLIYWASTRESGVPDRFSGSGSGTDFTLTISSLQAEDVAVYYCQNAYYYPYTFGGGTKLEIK    31200
hu299B2-S32A-2 (antibody, V domains shown, also called humanized antibody hu299B2-S32A) VH: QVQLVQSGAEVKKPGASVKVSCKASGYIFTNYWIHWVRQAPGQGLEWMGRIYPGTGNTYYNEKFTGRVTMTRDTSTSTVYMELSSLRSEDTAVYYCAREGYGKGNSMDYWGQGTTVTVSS VL: DIVMTQSPDSLAVSLGERATMNCKSSQSLLNAGNQKNYLTWYQQKPGQPPKLLFYWASTRESGVPDRFSGSGSGTDFTLTISSLQAEDVAVYHCQNAYYYPYTFGGGTKLEIK    36700

Now let's try a different one.
Value of measured Mean maximum fluorescence intensity (Top MFI) for the entry hu299B2-S32A-3 (antibody, V domains shown, also called humanized antibody hu299B2-S32A) VH: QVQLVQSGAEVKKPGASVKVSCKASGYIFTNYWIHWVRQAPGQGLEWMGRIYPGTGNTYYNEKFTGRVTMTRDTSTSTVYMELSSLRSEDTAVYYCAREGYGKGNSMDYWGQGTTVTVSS VL: DIVMTQSPDSLAVSLGERVTMNCKSSQSLLNAGNQKNYLTWYQQKPGQPPKLLFYWASTRESGVPDRFSGSGSGTDFTLTISSVQAEDVAVYHCQNAYYYPYTFGGGTKLEIK : 40000
